Cited source: PubChem BioAssay (NCI)

System: COLO 205 colon
Assay: NCI tumour cell line growth inhibition, 48 h
experimental.endpoint: TGI

response.value for CCOC(=O)NC(=O)c1cn(CCCOC(=O)CCCCCCCCCCC(=O)OCCCn2cc(C(=O)NC(=O)OCC)c(=O)[nH]c2=O)c(=O)[nH]c1=O (field: TGI) = > 100 µM

Measured TGI, O=c1c2cc(Br)cc(Br)c2nc(CCCl)n1CCO : > 100 µM

Notebook: Nc1ccc(C(=O)N2CCC[C@H]2CO)c(N)c1 , TGI read as > 100 µM

----------
System: A498 renal
Assay: NCI tumour cell line growth inhibition, 48 h
experimental.endpoint: TGI

O=C1c2cccnc2-c2nccc3c2c1nc1cc(Br)ccc13	0.0659 µM

Briefly, TGI measured for O=C1[C@@H]2C(c3ccccc3F)=NO[C@@H]2C(=O)N1c1ccc(Cc2ccc(N3C(=O)[C@H]4C(c5ccccc5F)=NO[C@H]4C3=O)cc2)cc1 : > 100 µM

Just so you know, measured TGI for Nc1nc(F)nc2c1ncn2C1OC(CO)C(O)C1O (stereo not given) came out at > 100 µM

// CC(=O)[C@@]1(O)CC[C@H]2[C@@H]3C[C@H](C)C4=CC(=O)C=C[C@]4(C)[C@@]3(F)[C@@H](O)C[C@@]21C : TGI value = > 100 µM

Sure, the documented TGI for CCCCN=C(c1ccccc1)N1CCOCC1 is > 100 µM

----------
Test system: U251 CNS
Assay: NCI tumour cell line growth inhibition, 48 h
Entries and their measured TGI follow.

CC(=O)O[C@]12CCCCCC1C1(O)C(O)CCCC[C@H]12 (stereo partly drawn)	> 100 µM
CSC(C1c2ccccc2N(c2ccc(C)cc2)c2[nH]c(=O)n(C)c(=O)c21)S(=O)(=O)c1ccc(C)cc1 (stereo not drawn)	> 100 µM
COc1cccc(C#Cc2ccccc2C#CCCCCO)c1	22.3 µM
CCNC(=O)Nc1cccc(NC(=O)NCC)n1	> 100 µM
ClCC[N+]12CC[N+](CCCl)(CC1)C2	> 100 µM

Per the record, Nc1ccc(C(=O)N2CCC[C@H]2CO)c(N)c1 has TGI of > 100 µM

In plain terms, C[N+]12CCCCC1C(CN1C(=O)Cc3c4ccccc4c(c4ccccc34)CC1=O)CCC2 (stereo not drawn) has a documented TGI of > 100 µM

----------
System: EKVX NSCLC
Experiment: NCI tumour cell line growth inhibition, 48 h
Catalogue of compounds with associated TGI

Cc1ccc2c(c1)C(=O)C1(C2)Cc2cccc(C)c2C1=O (stereo not drawn)	> 100 µM
COc1cccc2c(=O)c3c(sc12)c(N1CCNCC1)nc1ccccc13	3.17 µM
N#Cc1c(Cl)cc(Cl)n2c1nc1ccccc12	67.6 µM

The reported value for O=C(O)C1C(Br)(c2ccccc2)C1(Br)c1ccccc1 (stereo not drawn) in terms of TGI is > 100 µM

Recorded TGI (compound COc1ccc(C(=O)COc2ccc(/C=C3\COc4ccc(OC)cc4C3=O)cc2)cc1 ): > 100 µM

Kindly note the recorded TGI for CN1COCc2c1ccc1cc3ccc4c(c3nc21)COCN4S(C)(=O)=O , which is > 100 µM

Lookup result for CN(C)CCN1C(=O)c2ccc3c4c(ccc(c24)C1=O)C(=O)N(CCN=C=S)C3=O ; measured TGI: 1.5 µM

// Nc1ccn(C2CCC(CO)O2)c(=O)n1 (stereo not drawn) : TGI value = > 1000 µM
